Origin of the recorded values: paper PMC11050014

Target: recombinant rhodesain (Trypanosoma brucei rhodesiense)
Construct: Rhodesain was recombinantly expressed as previously described
Experiment: Enzyme assay against recombinant rhodesain, fluorogenic substrate Cbz-Phe-Arg-AMC
Details: Cbz-Phe-Arg-AMC 10 µM, pH 5.5, progress curves 10 min; Ki = IC50/(1 + [S]/Km)
propertyName: pKi
pKi (log units): -log10 of the concentration in mol/L.

Simply: CC(C)C[C@H](NC(=O)[C@H]1O[C@@H]1C(=O)O)C(=O)NCCCCN=C(N)N [E-64, reference compound] , recombinant rhodesain (Trypanosoma brucei rhodesiense), pKi = 7.48

====

Reported melting point by item:

# smilesRecord, melting point
data = [
    ("N#C[C@H](CCc1ccccc1)NC(=O)CCn1ccc2cc(F)ccc21", "142 to 143 °C"),
]

Input N#CC1(NC(=O)CCn2ccc3ccccc32)CC1 . Output melting point: 139 to 141 °C

According to the records, this molecule N#C[C@H](CCc1ccccc1)NC(=O)Cn1ccc2ccccc21 displays melting point of 120 to 121 °C

// recorded melting point for N#C[C@H](CCc1ccccc1)NC(=O)Cn1ccc2cc(F)ccc21 : 150 to 152 °C

Documented melting point of Cc1cc2ccccc2n1CCC(=O)N[C@H](C#N)CCc1ccccc1 : 144 to 145 °C

====

Catalogue of inhibition at 100 µM values
Target: recombinant rhodesain (Trypanosoma brucei rhodesiense, UniProt Q95PM0)
Construct: Rhodesain was recombinantly expressed as previously described; made in house
Sequence (Q95PM0 entry or part of it): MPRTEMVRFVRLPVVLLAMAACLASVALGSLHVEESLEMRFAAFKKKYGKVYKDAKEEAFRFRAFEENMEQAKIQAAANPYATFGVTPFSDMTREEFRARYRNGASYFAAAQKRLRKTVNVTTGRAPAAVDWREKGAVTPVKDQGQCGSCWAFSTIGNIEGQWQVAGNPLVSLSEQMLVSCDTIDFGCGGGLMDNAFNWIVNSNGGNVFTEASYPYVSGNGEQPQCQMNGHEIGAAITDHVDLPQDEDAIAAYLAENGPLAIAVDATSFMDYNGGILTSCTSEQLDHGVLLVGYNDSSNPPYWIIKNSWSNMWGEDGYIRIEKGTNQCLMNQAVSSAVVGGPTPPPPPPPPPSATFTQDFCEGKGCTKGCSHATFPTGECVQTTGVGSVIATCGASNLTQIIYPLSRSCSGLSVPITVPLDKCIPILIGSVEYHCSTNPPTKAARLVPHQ
Assay: Enzyme assay against recombinant rhodesain, fluorogenic substrate Cbz-Phe-Arg-AMC
Assay type: biochemical
Settings: read-out: Rhodesain Percentage of Inhibition at 100 μM
Write the answer as a number in %, unit excluded.

// worked examples, inhibition at 100 µM included
# smilesRecord, inhibition at 100 µM [%]
records = [
    ("N#C[C@H](CCc1ccccc1)NC(=O)Cn1ccc2cc(F)ccc21", 18.7),
    ("Cc1cn(CCC(=O)N[C@H](C#N)CCc2ccccc2)c2ccccc12", 7.8),
    ("N#CC1(NC(=O)Cn2ccc3cc(F)ccc32)CC1", 4.5),
    ("Cc1cn(CCC(=O)NC2(C#N)CC2)c2ccccc12", 9.5),
    ("N#CC1(NC(=O)CCn2ccc3cc(F)ccc32)CC1", 9.6),
]

Now for another entry.
Lab note: compound N#C[C@H](CCc1ccccc1)NC(=O)CCn1ccc2cc(F)ccc21 tested on recombinant rhodesain (Trypanosoma brucei rhodesiense, UniProt Q95PM0); recorded inhibition at 100 µM was 1.9

====

Test system: Bloodstream T. brucei parasites (T. b. brucei)
Assay: Antitrypanosomal activity, ATPlite cell viability assay
Assay type: cell-based
Settings: Trypanosoma brucei, 48 h, read-out: Antitrypanosomal IC50 (48 h)
propertyName: IC50 (nM)
Numeric only. Scale: nM

Observed IC50 on Bloodstream T. brucei parasites (T. b. brucei), entry [H]/N=C(\N/C(=N/[H])NCCCCCCNC(=N)NC(=N)Nc1ccc(Cl)cc1)Nc1ccc(Cl)cc1 [Chlorhexidine, chlorhexidine, reference compound] , equals 700

====

Tested on: Bloodstream T. brucei parasites (T. b. brucei)
Assay: Antitrypanosomal activity, ATPlite cell viability assay
Type: cell-based
Settings: Trypanosoma brucei; 24 h incubation, ATPlite cell viability; read-out: Antitrypanosomal IC50 (24 h)
// reported IC50 for each item listed
Give just the numeric value; µM need not be written.

# compound, readoutUnits, IC50
rows = [
    ("Cc1cc2ccccc2n1CCC(=O)N[C@H](C#N)CCc1ccccc1", "µM", 12),
]

Now, please, on to the next compound.
Item: [H]/N=C(\N/C(=N/[H])NCCCCCCNC(=N)NC(=N)Nc1ccc(Cl)cc1)Nc1ccc(Cl)cc1 [Chlorhexidine, chlorhexidine, reference compound] | IC50: 0.98
